# assayRemarks: Solvent solubility (butyl acetate, toluene or PGMEA)
# Type: physicochemical
# conditionParameters: butyl acetate, 25° C.
endpointName: Solvent solubility Butyl acetate (wt %)
Report the value in wt % with no unit label.

molecule: O=C1c2cccc3cccc(c23)C(=O)N1OS(=O)(=O)c1c(F)c(F)c(F)c(F)c1F [A′-3, reference compound]
Solvent solubility Butyl acetate, wt %: 1.6
//
molecule: CC(C)(C)c1cc2c3c(cc(C(C)(C)C)cc3c1)C(=O)N(OS(=O)(=O)c1c(F)c(F)c(F)c(F)c1F)C2=O
Solvent solubility Butyl acetate, wt %: 6.5

Problem: Which Solvent solubility Butyl acetate value belongs to O=C1c2cccc3c(Oc4cccc(C(F)(F)F)c4)ccc(c23)C(=O)N1OS(=O)(=O)c1c(F)c(F)c(F)c(F)c1F ?
Solution: 11

Problem: Which Solvent solubility Butyl acetate value belongs to O=C1c2cccc3c(Oc4c(F)c(F)c(F)c(F)c4F)ccc(c23)C(=O)N1OS(=O)(=O)c1c(F)c(F)c(F)c(F)c1F ?
Solution: 14

Problem: Which Solvent solubility Butyl acetate value belongs to CC(C)(C)Cc1cc2c3c(cc(CC(C)(C)C)cc3c1)C(=O)N(OS(=O)(=O)c1c(F)c(F)c(F)c(F)c1F)C2=O ?
Solution: 14

Problem: Which Solvent solubility Butyl acetate value belongs to CC(C)Oc1ccc2c3c(cccc13)C(=O)N(OS(=O)(=O)c1c(F)c(F)c(F)c(F)c1F)C2=O ?
Solution: 4
